These measurements were taken from patent US9284308B2.

TARGET_OR_SYSTEM: human RORγt ligand binding domain (RORγt LBD) (Homo sapiens)
Construct: His-tag (N); TurboTEV protease cleavage site (ENLYFQG) (N)
MEASUREMENT_PROTOCOL: RORγt ThermoFluor assay (ligand binding affinity from protein thermal stability)
Kd strictly under 100 nM means yes; at 100 nM or over means no.

hey, is Kd for COc1nc2ccc(C(O)(c3ccc(C)nc3C)c3cnnn3C)cc2c(C#N)c1Cc1ccc(F)cc1 (single isomer, unassigned) [Example 49b] lower than 100 nM or not?
no

Lookup CNC(c1ccc2nc(OC)c(Cc3ccc(C(F)(F)F)cc3)c(Cl)c2c1)(c1ccc(C)nc1C)c1cnnn1C (single isomer, unassigned) [Example 121c]
no

Lookup COc1nc2ccc(C(O)(c3ccc(C)nc3C)c3cnnn3C)cc2c(Cl)c1Cc1ccc(F)cc1 (single isomer, unassigned) [Example 48b]
no

Lookup COc1nc2ccc(C(O)(c3ccc(C(F)(F)F)cc3)c3cccnc3)cc2c(Cl)c1Cc1ccc(-n2cccn2)cc1 (single isomer, unassigned) [Example 162b]
no

Lookup COc1nc2ccc(C(O)(c3ccc(Cl)cc3)c3cncn3C)cc2c(Cl)c1Cc1cccc(C#N)c1 (stereo not drawn) [Example 70]
no

Lookup COc1nc2ccc(C(O)(c3cnnn3C)c3cnc(C)n3C)cc2c(Cl)c1Cc1ccc(F)cc1 (single isomer, unassigned) [Example 65b]
yes

* * *

TARGET_OR_SYSTEM: human RORγt ligand binding domain (RORγt LBD) (Homo sapiens, UniProt P51449)
Construct: His-tag (N); TurboTEV protease cleavage site (ENLYFQG) (N)
Sequence (P51449 with tags, fused parts or gaps): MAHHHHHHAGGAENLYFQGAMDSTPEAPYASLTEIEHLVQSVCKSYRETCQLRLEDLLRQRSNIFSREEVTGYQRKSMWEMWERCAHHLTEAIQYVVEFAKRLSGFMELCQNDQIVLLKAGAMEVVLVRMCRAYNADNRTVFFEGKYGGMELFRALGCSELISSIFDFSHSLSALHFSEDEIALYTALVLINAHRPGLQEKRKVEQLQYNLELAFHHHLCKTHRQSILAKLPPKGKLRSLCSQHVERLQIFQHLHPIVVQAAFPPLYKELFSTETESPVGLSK
MEASUREMENT_PROTOCOL: RORγt ThermoFluor assay (ligand binding affinity from protein thermal stability)
pKd: −log10 of the molar value.
Class key for pKd values: LOW: < 7; MID: ≥ 7 and < 8; HIGH: ≥ 8

These recorded examples may help you get a feel for the data.
CC(=O)N1CCC(C(O)(c2ccc3nc(C(F)(F)F)c(Cc4ccccc4)c(Cl)c3c2)c2cncn2C)CC1 (single isomer, unassigned) [Example 115b]
MID
COc1nc2ccc(C(O)(c3ccc(C)nc3C)c3cnnn3C)cc2c(Cl)c1Cc1ccc(F)cc1 (stereo not drawn) [Example 48a]
HIGH
COc1nc2ccc(C(O)(c3ccc(Cl)cc3)c3cncn3C)cc2c(Cl)c1Cc1ccc(C(F)(F)F)nc1 (single isomer, unassigned) [Example 39c]
MID

Given Cn1cncc1C(O)(c1ccc(C(F)(F)F)nc1)c1ccc2nc(-n3cccn3)c(Cc3ccccc3)c(C#N)c2c1 (single isomer, unassigned) [Example 114c] , name the class its pKd places it in.
LOW

Lookup COc1nc2ccc(C(O)(c3ccc(C(F)(F)F)cc3)c3cccnc3)cc2c(Cl)c1Cc1ccc(-n2cccn2)cc1 (single isomer, unassigned) [Example 162c]
HIGH

Lookup CNC(c1ccc2nc(OC)c(Cc3ccc(C(F)(F)F)cc3)c(Cl)c2c1)(c1ccc(C)nc1C)c1cnnn1C (single isomer, unassigned) [Example 121b]
LOW

Lookup COc1nc2ccc(C(O)(c3ccc(C)nc3C)c3cnnn3C)cc2c(Cl)c1Cc1ccc(F)cc1 (single isomer, unassigned) [Example 48c]
HIGH

* * *

Measured RORγt (LBD) Reporter Assay, % inhibition @ 6 μM by item
TARGET_OR_SYSTEM: human RORγt LBD (Homo sapiens)
Construct: expressed in transfected cells; host or cells: HEK293T
MEASUREMENT_PROTOCOL: RORγt (LBD) reporter assay in HEK293T cells
Type: cell-based
CONDITION_NOTES: 6 μM compound, 6 µM
Number only, in %; omit the unit.

COc1nc2ccc(C(O)(c3ccc(C(F)(F)F)cc3)c3cccnc3)cc2c(Cl)c1Cc1ccc(-n2cccn2)cc1 (single isomer, unassigned) [Example 162c]
98

Give its RORγt (LBD) Reporter Assay, % inhibition @ 6 μM value. Item: COc1nc2ccc(C(O)(c3ccc(Cl)cc3)c3cncn3C)cc2c(Cl)c1Cc1ccc(C(F)(F)F)nc1 (single isomer, unassigned) [Example 39c]
98

Lookup COc1nc2ccc(C(O)(c3ccc(C)nc3C)c3cnnn3C)cc2c(C#N)c1Cc1ccc(F)cc1 (single isomer, unassigned) [Example 49b]
62

Lookup COc1nc2ccc(C(O)(c3ccc(C)nc3C)c3cnnn3C)cc2c(Cl)c1Cc1ccc(F)cc1 (single isomer, unassigned) [Example 48c]
63

Lookup COc1nc2ccc(C(O)(c3oc(C)nc3C)c3cnnn3C)cc2c(Cl)c1Cc1ccc(C(F)(F)F)cc1 (single isomer, unassigned) [Example 156c]
99

Lookup COc1nc2ccc(C(O)(c3ccc(C)nc3C)c3cnnn3C)cc2c(C#N)c1Cc1ccc(F)cc1 (single isomer, unassigned) [Example 49c]
83

Lookup COc1c(Cc2ccccc2)c(C(F)(F)F)nc2ccc(C(O)(c3ccc(Cl)cc3)c3cncn3C)cc12 (single isomer, unassigned) [Example 101c]
89

* * *

TARGET_OR_SYSTEM: human RORγt ligand binding domain (RORγt LBD) (Homo sapiens, UniProt P51449)
Construct: His-tag (N); TurboTEV protease cleavage site (ENLYFQG) (N)
MEASUREMENT_PROTOCOL: RORγt ThermoFluor assay (ligand binding affinity from protein thermal stability)
READOUT: log10(Kd) (log10 of the value in µM)
Please keep in mind that the values are log10 of Kd expressed in µM.

Give its log10(Kd) value. Item: COc1nc2ccc(C(O)(c3ccc(C)nc3C)c3cnnn3C)cc2c(C#N)c1Cc1ccc(F)cc1 (centres unmarked) [Example 49a]
-2.77

Lookup COc1nc2ccc(C(O)(c3oc(C)nc3C)c3cnnn3C)cc2c(Cl)c1Cc1ccc(C(F)(F)F)cc1 (single isomer, unassigned) [Example 156b]
-1.12

Lookup CC(=O)N1CCC(C(O)(c2ccc3nc(C(F)(F)F)c(Cc4ccccc4)c(Cl)c3c2)c2cncn2C)CC1 (single isomer, unassigned) [Example 115c]
-1.77

Lookup COc1nc2ccc(C(O)(c3oc(C)nc3C)c3cnnn3C)cc2c(Cl)c1Cc1ccc(C(F)(F)F)cc1 (single isomer, unassigned) [Example 156c]
-3.23

Lookup COc1nc2ccc(C(O)(c3ccc(Cl)cc3)c3cncn3C)cc2c(Cl)c1Cc1ccc(C(F)(F)F)nc1 (centres unmarked) [Example 39a]
-1.18

Lookup COc1nc2ccc(C(O)(c3ccc(C(F)(F)F)cc3)c3cccnc3)cc2c(Cl)c1Cc1ccc(-n2cccn2)cc1 (centres unmarked) [Example 162a]
-1.70

Lookup COc1nc2ccc(C(O)(c3ccc(C)nc3C)c3cnnn3C)cc2c(C#N)c1Cc1ccc(F)cc1 (single isomer, unassigned) [Example 49c]
-2.57

Lookup COc1nc2ccc(C(c3ccc(C)nc3C)(c3cnnn3C)N(C)C)cc2c(Cl)c1Cc1ccc(C(F)(F)F)cc1 (single isomer, unassigned) [Example 122c]
-2.66

Lookup Cn1cncc1C(O)(c1ccc(C(F)(F)F)nc1)c1ccc2nc(-c3nccn3C)c(Cc3ccccc3)c(Cl)c2c1 (single isomer, unassigned) [Example 113c]
0.08

Lookup COc1nc2ccc(C(O)(c3cnnn3C)c3cnc(C)n3C)cc2c(Cl)c1Cc1ccc(F)cc1 (single isomer, unassigned) [Example 65c]
-3.32

Lookup COc1nc2ccc(C(N)(c3ccc(C(F)(F)F)nc3)c3cncn3C)cc2c(Cl)c1Cc1ccccc1 (single isomer, unassigned) [Example 120c]
0.04

* * *

TARGET_OR_SYSTEM: human RORγt LBD (Homo sapiens)
Sequence (P51449 258-518): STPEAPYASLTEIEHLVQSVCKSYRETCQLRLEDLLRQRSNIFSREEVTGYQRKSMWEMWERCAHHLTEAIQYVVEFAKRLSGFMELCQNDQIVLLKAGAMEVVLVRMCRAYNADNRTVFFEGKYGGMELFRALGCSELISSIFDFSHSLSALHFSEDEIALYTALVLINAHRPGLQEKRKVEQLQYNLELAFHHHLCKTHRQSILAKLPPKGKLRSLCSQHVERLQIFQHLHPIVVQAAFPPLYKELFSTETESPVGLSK
MEASUREMENT_PROTOCOL: RORγt (LBD) reporter assay in HEK293T cells
READOUT: IC50 (nM)
Number only, in nM; omit the unit.

COc1nc2ccc(C(O)(c3cnnn3C)c3cnc(C)n3C)cc2c(Cl)c1Cc1ccc(F)cc1 (single isomer, unassigned) [Example 65b]
22
COc1nc2ccc(C(O)(c3ccc(C(F)(F)F)cc3)c3cccnc3)cc2c(Cl)c1Cc1ccc(-n2cccn2)cc1 (single isomer, unassigned) [Example 162c]
98

Give its IC50 value. Item: CNC(c1ccc2nc(OC)c(Cc3ccc(C(F)(F)F)cc3)c(Cl)c2c1)(c1ccc(C)nc1C)c1cnnn1C (single isomer, unassigned) [Example 121c]
220
